The entries below come with measured cGMP Assay (EC50, pM) w/Casein, rNPRA values attached.
- tested_target: T1, rat NPRA (rat, UniProt P18910 29-1057)
- T1 sequence (looked up): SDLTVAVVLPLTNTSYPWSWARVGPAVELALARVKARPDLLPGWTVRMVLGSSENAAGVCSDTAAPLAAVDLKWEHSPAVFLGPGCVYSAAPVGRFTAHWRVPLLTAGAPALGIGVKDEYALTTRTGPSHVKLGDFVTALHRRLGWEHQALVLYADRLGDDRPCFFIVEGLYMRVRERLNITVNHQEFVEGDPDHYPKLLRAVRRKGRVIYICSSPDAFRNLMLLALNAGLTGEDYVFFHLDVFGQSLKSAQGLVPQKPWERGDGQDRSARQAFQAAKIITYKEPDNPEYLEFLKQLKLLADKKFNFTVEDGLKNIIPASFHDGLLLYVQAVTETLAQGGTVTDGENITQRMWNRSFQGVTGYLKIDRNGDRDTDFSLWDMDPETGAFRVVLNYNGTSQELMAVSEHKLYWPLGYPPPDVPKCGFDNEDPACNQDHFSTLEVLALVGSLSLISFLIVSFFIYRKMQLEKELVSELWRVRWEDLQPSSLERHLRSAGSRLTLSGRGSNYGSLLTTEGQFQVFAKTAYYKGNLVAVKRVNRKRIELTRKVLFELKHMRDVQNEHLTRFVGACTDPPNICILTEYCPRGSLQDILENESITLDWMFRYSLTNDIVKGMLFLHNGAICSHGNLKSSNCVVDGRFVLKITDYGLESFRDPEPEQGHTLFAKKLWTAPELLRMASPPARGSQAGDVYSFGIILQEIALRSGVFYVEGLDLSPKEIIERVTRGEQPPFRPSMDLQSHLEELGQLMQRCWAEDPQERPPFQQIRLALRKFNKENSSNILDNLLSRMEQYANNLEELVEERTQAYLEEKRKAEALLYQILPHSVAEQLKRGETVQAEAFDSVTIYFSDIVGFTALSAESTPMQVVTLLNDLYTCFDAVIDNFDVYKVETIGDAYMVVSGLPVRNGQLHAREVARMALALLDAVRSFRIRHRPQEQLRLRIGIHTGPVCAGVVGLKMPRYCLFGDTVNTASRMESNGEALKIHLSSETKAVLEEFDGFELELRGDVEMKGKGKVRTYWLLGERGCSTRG
- assay: cell-based or functional assay
Numbered stars: 1 amine (or outer) side, 2 acyl side, 3 side chain; on linkers, the order of the positions; unused ones are H or OH. Bridge positions count the residues as written; N and C are the ends. * marks the point of attachment. thioacetal = thioacetal linkage between two cysteines (intrachain bond at the bracketed Cys); C20 diacid = O=C(O)CCCCCCCCCCCCCCCCCCC(=O)*; γGlu = O=C(O)[C@H](CCC(=O)[*:2])N[*:1]
I only need the number, in pM, no unit after it.

Worked examples, 5 binders total:
binder="EKPRSSCFGKRIDRIGHYSGLGCPSFRHSGSPSSGAPPPSG (N-terminus acylated with HOOC-(CH2)18-CO-(γGlu)-; (AEEA)6 after EKEKEKG; thioacetal linkage between the two bracketed Cys; C-terminal amide) [HOOC-(CH2)18-CO-(γGlu)-EKEKEKG-(AEEA)6-EKPRSS[CFGKRIDRIGHYSGLGC]PSFRHSGSPSSGAPPPSG-NH2]" value_reported=3830
binder="{C20 diacid-γGlu}-EKEKEKGEKPRSSCFGKRIDRIGHQSGLGCPSFRHGSGSPSSGAPPPSG-NH2 (bridge 14-30 via thioacetal) [HOOC-(CH2)18-CO-(γGlu)-EKEKEKGEKPRSS[CFGKRIDRIGHQSGLGC]PSFRHGSGSPSSGAPPPSG-NH2]" value_reported=2160
binder="SXRRSSCFGKRIDRIGHYSGLGCPSFRHGSGSPSSGAPPPSG (N-terminus acylated with HOOC-(CH2)18-CO-(γGlu)-; (AEEA)6 after EKEKEKG; 4Pal; thioacetal linkage between the two bracketed Cys; C-terminal amide) [HOOC-(CH2)18-CO-(γGlu)-EKEKEKG-(AEEA)6-S-4Pal-RRSS[CFGKRIDRIGHYSGLGC]PSFRHGSGSPSSGAPPPSG-NH2]" value_reported=6040
binder="SXRRSSCFGKRIDRIGHYSGLGCPSFRHGGKSSGAPPPS (N-terminus acylated with HOOC-(CH2)18-CO-(γGlu)-; (AEEA)6 after EKEKEKG; 4Pal; thioacetal linkage between the two bracketed Cys; C-terminal amide) [HOOC-(CH2)18-CO-(γGlu)-EKEKEKG-(AEEA)6-S-4Pal-RRSS[CFGKRIDRIGHYSGLGC]PSFRHGGKSSGAPPPS-NH2]" value_reported=2630
binder="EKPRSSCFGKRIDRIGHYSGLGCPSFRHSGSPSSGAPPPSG (N-terminus acylated with HOOC-(CH2)18-CO-(γGlu)-; (AEEA)8 after EKEKEKG; thioacetal linkage between the two bracketed Cys; C-terminal amide) [HOOC-(CH2)18-CO-(γGlu)-EKEKEKG-(AEEA)8-EKPRSS[CFGKRIDRIGHYSGLGC]PSFRHSGSPSSGAPPPSG-NH2]" value_reported=3760

In: Please give measured cGMP Assay (EC50, pM) w/Casein, rNPRA of the following entry: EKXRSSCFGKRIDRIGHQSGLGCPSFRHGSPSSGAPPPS (N-terminus acylated with HOOC-(CH2)18-CO-(γGlu)-; (AEEA)8 after EKEKEKG; βAla; thioacetal linkage between the two bracketed Cys; C-terminal amide) [HOOC-(CH2)18-CO-(γGlu)-EKEKEKG-(AEEA)8-EK-βAla-RSS[CFGKRIDRIGHQSGLGC]PSFRHGSPSSGAPPPS-NH2]
Out: 25400

Hey, just so you know, these numbers are from patent US20240174727A1.
